- target: Thymidylate synthase isolated from L1210 murine leukemia cells (Mus musculus, UniProt P07607)
- Construct: endogenous in cells
- Sequence (P07607 whole entry): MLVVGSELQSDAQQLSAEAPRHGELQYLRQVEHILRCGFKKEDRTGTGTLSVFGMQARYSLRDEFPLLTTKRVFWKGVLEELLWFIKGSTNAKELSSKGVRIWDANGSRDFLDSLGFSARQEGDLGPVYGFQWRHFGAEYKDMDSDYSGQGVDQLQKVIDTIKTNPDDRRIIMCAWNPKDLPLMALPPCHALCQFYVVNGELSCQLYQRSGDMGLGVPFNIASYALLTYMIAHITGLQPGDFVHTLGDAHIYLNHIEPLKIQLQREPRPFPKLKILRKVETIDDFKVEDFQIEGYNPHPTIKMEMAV
- assay.summary: inhibition of thymidylate synthase (tritium release assay)
- Format: biochemical
- protocol.conditions: 50 μ molar deoxyuridine, 100 μmolar 5,10-methylene-tetrahydrofolate
measurement.kind: pIC50
Scale: pIC50 equals -log10([C]), with [C] in mol/L.

Form field pIC50, entry C#CCN(Cc1ccc2nc(N)nc(O)c2c1)c1ccc(Cl)c(Cl)c1 [Example 2g] : 5.30

Form field pIC50, entry C#CCN(Cc1ccc2nc(N)[nH]c(=O)c2c1)c1ccc(C(N)=O)cc1 [Example 2d] : 6.19

Form field pIC50, entry C#CCN(Cc1ccc2nc[nH]c(=O)c2c1)c1ccc(C(C)=O)cc1 [Example 2] : 5.62

Form field pIC50, entry C#CCN(Cc1ccc2nc[nH]c(=O)c2c1)c1cc(OC)c(OC)c(OC)c1 [Example 2c] : 4.02

Form field pIC50, entry C#CCN(Cc1ccc2nc(N)[nH]c(=O)c2c1)c1ccc(C#N)cc1 [Example 2e] : 5.89

----------
Answer each item with its documented pIC50.
- target: Thymidylate synthase isolated from L1210 murine leukemia cells (Mus musculus)
- Construct: endogenous in cells
- assay.summary: inhibition of thymidylate synthase (tritium release assay)
- protocol.conditions: 50 μ molar deoxyuridine, 100 μmolar 5,10-methylene-tetrahydrofolate
Scale: pIC50 equals -log10([C]), with [C] in mol/L.

Form field pIC50, entry C#CCN(Cc1ccc2nc[nH]c(=O)c2c1)c1ccc(Cl)c(Cl)c1 [Example 2a] : 4.96

Form field pIC50, entry C#CCN(Cc1ccc2nc(N)[nH]c(=O)c2c1)c1ccc(S(=O)(=O)N(C)C)cc1 [Example 2n] : 6.00

Form field pIC50, entry C#CCN(Cc1ccc2nc(N)[nH]c(=O)c2c1)c1ccc(C(=O)C(F)(F)F)cc1 [Example 2k] : 6.29

Form field pIC50, entry C#CCN(Cc1ccc2nc(N)[nH]c(=O)c2c1)c1ccc(C(C)=O)cc1 [Example 2j] : 6.11

Form field pIC50, entry C#CCN(Cc1ccc2nc(N)[nH]c(=O)c2c1)c1ccc([N+](=O)[O-])cc1 [Example 2i] : 6.21

Form field pIC50, entry C#CCN(Cc1ccc2nc(N)[nH]c(=O)c2c1)c1ccc(F)cc1 [Example 2f] : 4.94

Form field pIC50, entry C#CCN(Cc1ccc2nc(N)[nH]c(=O)c2c1)c1ccc(OC(F)(F)F)cc1 [Example 2h] : 4.95

Form field pIC50, entry C#CCN(Cc1ccc2nc(N)nc(O)c2c1)c1cc(OC)c(OC)c(OC)c1 [Example 2l] : 4.30
